Reference for the values: patent US9980943B2

Recorded CMV-LACZ in Myotubes, value relative to DMSO, one value per entry.
System: β-galactosidase in CMV-LacZ C2C12 myotubes
Assay: CMV-LacZ secondary screen in C2C12 myotubes (β-Gal stabilizing assay)
Format: cell-based, mouse
Conditions: 5 uM; SU9516 analogs, C2C12 CMV-LacZ, N=2
testReadout: CMV-LACZ in Myotubes, value relative to DMSO

{"compound": "COc1cc(OC)c(/C=C2/C(=O)Nc3ccccc32)c(OC)c1 [NCGC00015546-04]", "assayResult": 1.0553}
{"compound": "COc1ccc(C(=O)/C=C2/C(=O)Nc3ccccc32)cc1OC [MLS001163860-01]", "assayResult": 1.1250}
{"compound": "O=C1Nc2ccccc2/C1=C/c1cnc(-c2ccccc2)[nH]1 [MLS000834756-01]", "assayResult": 1.1994}
{"compound": "N#C/C(=C1/C(=O)Nc2ccc(Br)cc21)c1ccccn1 [MLS001013431-01]", "assayResult": 0.9388}
{"compound": "Cc1cc(C)c(/C=C2\\C(=O)Nc3ccccc32)[nH]1 [NCGC00094381-05]", "assayResult": 1.2069}

====

Tested on: α7 integrin (LacZ reporter in α7+/LacZ myotubes)
Assay: Myotube α7 integrin FDG assay (Burkin assay in myotubes, 96-well)
Assay type: cell-based, mouse
Conditions: 1 uM, myotubes
Recorded Burkin Assay in Myotubes (signal relative to DMSO), one value per entry.
testReadout: Burkin Assay in Myotubes (signal relative to DMSO)

{"molecule": "C/C(=N/OC(=O)CC(C)C)c1cc(-c2ccc(Cl)cc2)no1 [MLS000721030-01]", "experimentalSystem": "α7 integrin (LacZ reporter in α7+/LacZ myotubes)", "assayResult": 1.051}
{"molecule": "NS(=O)(=O)c1ccc(NC(=O)c2cc(-c3ccccc3O)n[nH]2)cc1 [MLS001214443-01]", "experimentalSystem": "α7 integrin (LacZ reporter in α7+/LacZ myotubes)", "assayResult": 0.9018}
{"molecule": "COc1ccc(-c2csc3ncnc(N4CCN(c5ccccc5[N+](=O)[O-])CC4)c23)cc1 [MLS001149811-01]", "experimentalSystem": "α7 integrin (LacZ reporter in α7+/LacZ myotubes)", "assayResult": 0.9993}
{"molecule": "N/C(=N\\OC(=O)COc1cc(Cl)c(Cl)cc1Cl)c1ccncc1 [MLS000625140-01]", "experimentalSystem": "α7 integrin (LacZ reporter in α7+/LacZ myotubes)", "assayResult": 0.8454}
{"molecule": "C[C@H]1CNC(=O)c2c(C(=O)Nc3ccc(CNC(=O)OC(C)(C)C)cc3)ncn21 [MLS003126425-01]", "experimentalSystem": "α7 integrin (LacZ reporter in α7+/LacZ myotubes)", "assayResult": 1.203}
{"molecule": "Cc1nnc(NC(=O)CSc2nnc(CCNC(=O)c3ccccc3F)n2C)s1 [MLS001217045-01]", "experimentalSystem": "α7 integrin (LacZ reporter in α7+/LacZ myotubes)", "assayResult": 1.156}
{"molecule": "CCS(=O)(=O)N1CCCC(C(=O)c2ccc(OC)cc2C)C1 (centres unmarked) [MLS000693747-01]", "experimentalSystem": "α7 integrin (LacZ reporter in α7+/LacZ myotubes)", "assayResult": 0.7194}
{"molecule": "COc1ccc(CNC(=O)CCN2C(=O)c3ccccc3C2=O)cc1 [MLS001200980-01]", "experimentalSystem": "α7 integrin (LacZ reporter in α7+/LacZ myotubes)", "assayResult": 1.022}
